B1: glmS ribozyme (parent)
chain: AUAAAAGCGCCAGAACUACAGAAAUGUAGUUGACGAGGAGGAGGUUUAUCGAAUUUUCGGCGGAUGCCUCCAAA

variants of: B1; assay: self-cleavage kobs at 2500 uM GlcN6P; higher = faster cleavage; RNA array; settings: with glucosamine-6-phosphate
Variants at the floor of the assay were thinned out.
Would you mind telling me the reported self-cleavage kobs at 2500 uM GlcN6P of each entry?

For record C10U G35C G51U U56G G62U the listed self-cleavage kobs at 2500 uM GlcN6P is < 1e-05 s⁻¹

For record C11U G62C the listed self-cleavage kobs at 2500 uM GlcN6P is < 1e-05 s⁻¹

For record A33G U57A the listed self-cleavage kobs at 2500 uM GlcN6P is < 1e-05 s⁻¹

For record U45A U54G the listed self-cleavage kobs at 2500 uM GlcN6P is 0.0113 s⁻¹

For record A12U A52G the listed self-cleavage kobs at 2500 uM GlcN6P is 0.00267 s⁻¹

For record U46G C71G the listed self-cleavage kobs at 2500 uM GlcN6P is 0.000849 s⁻¹

For record G38C C67U the listed self-cleavage kobs at 2500 uM GlcN6P is < 1e-05 s⁻¹

For record A52G G62A G63U U69G the listed self-cleavage kobs at 2500 uM GlcN6P is 0.000139 s⁻¹

For record G32A U69C the listed self-cleavage kobs at 2500 uM GlcN6P is 0.000191 s⁻¹

For record A6G A14U A48G G63U the listed self-cleavage kobs at 2500 uM GlcN6P is < 1e-05 s⁻¹

For record G35A C58G the listed self-cleavage kobs at 2500 uM GlcN6P is < 1e-05 s⁻¹

For record G13U U30G the listed self-cleavage kobs at 2500 uM GlcN6P is 0.000105 s⁻¹

For record A14U G51C A64G the listed self-cleavage kobs at 2500 uM GlcN6P is < 1e-05 s⁻¹

For record G35A A39G C61U the listed self-cleavage kobs at 2500 uM GlcN6P is < 1e-05 s⁻¹

For record A15C C16U U56C the listed self-cleavage kobs at 2500 uM GlcN6P is 0.000249 s⁻¹

For record G7U G9C G29C A39G U46A A52U U55C C67G C70U the listed self-cleavage kobs at 2500 uM GlcN6P is < 1e-05 s⁻¹

For record G51A U57C the listed self-cleavage kobs at 2500 uM GlcN6P is < 1e-05 s⁻¹

For record C34A A53C the listed self-cleavage kobs at 2500 uM GlcN6P is < 1e-05 s⁻¹

For record C34U A42C the listed self-cleavage kobs at 2500 uM GlcN6P is < 1e-05 s⁻¹

For record G9A A39G A52C the listed self-cleavage kobs at 2500 uM GlcN6P is < 1e-05 s⁻¹

For record A6G C16A G35U A48U the listed self-cleavage kobs at 2500 uM GlcN6P is < 1e-05 s⁻¹

For record G29U G40U the listed self-cleavage kobs at 2500 uM GlcN6P is 0.00032 s⁻¹
